Data provenance: the supplement of paper PMC10627819

- Test system: B. subtilis 168;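 further: OD595 on entry to stationary phase over no-drug wells; at most 1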
- method_notes: fitness (endpoint OD595 vs no drug) (fraction); higher = more growth
- assay_context: first compound 0.5 µg/mL; partner 4 µg/mL

molecule: CC[C@H]1OC(=O)[C@H](C)[C@@H](O[C@H]2C[C@@](C)(OC)[C@@H](O)[C@H](C)O2)[C@H](C)[C@@H](O[C@@H]2O[C@H](C)C[C@H](N(C)C)[C@H]2O)[C@](C)(O)C[C@@H](C)CN(C)[C@H](C)[C@@H](O)[C@]1(C)O [Azithromycin] + COc1c(N2C[C@@H]3CCCN[C@@H]3C2)c(F)cc2c(=O)c(C(=O)O)cn(C3CC3)c12 [Moxifloxacin]
fitness: 0.0272
--
molecule: CC[C@H]1OC(=O)[C@H](C)[C@@H](O[C@H]2C[C@@](C)(OC)[C@@H](O)[C@H](C)O2)[C@H](C)[C@@H](O[C@@H]2O[C@H](C)C[C@H](N(C)C)[C@H]2O)[C@](C)(O)C[C@@H](C)CN(C)[C@H](C)[C@@H](O)[C@]1(C)O [Azithromycin] + CN[C@@H]1[C@H](O[C@H]2[C@H](O[C@H]3[C@H](O)[C@@H](O)[C@H](N=C(N)N)[C@@H](O)[C@@H]3N=C(N)N)O[C@@H](C)[C@]2(O)C=O)O[C@@H](CO)[C@H](O)[C@H]1O [Streptomycin]
fitness: 0.739
--
molecule: CC[C@H]1OC(=O)[C@H](C)[C@@H](O[C@H]2C[C@@](C)(OC)[C@@H](O)[C@H](C)O2)[C@H](C)[C@@H](O[C@@H]2O[C@H](C)C[C@H](N(C)C)[C@H]2O)[C@](C)(O)C[C@@H](C)CN(C)[C@H](C)[C@@H](O)[C@]1(C)O [Azithromycin] + Cc1cc(NS(=O)(=O)c2ccc(N)cc2)no1 [Sulfamethoxazol]
fitness: 0.849
